Target Or System: hSUCNR1 (Homo sapiens)
Sequence (Q9BXA5 1-334): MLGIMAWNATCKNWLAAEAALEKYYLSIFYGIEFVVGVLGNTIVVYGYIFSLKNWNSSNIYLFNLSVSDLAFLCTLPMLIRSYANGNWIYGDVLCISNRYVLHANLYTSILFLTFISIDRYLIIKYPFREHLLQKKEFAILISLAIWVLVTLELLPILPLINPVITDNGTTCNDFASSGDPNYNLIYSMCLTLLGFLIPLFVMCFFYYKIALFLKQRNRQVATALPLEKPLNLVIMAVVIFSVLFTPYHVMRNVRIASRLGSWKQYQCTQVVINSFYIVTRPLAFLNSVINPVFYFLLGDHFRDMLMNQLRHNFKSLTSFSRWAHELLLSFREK
Test Summary: cAMP assay, inhibition of succinate response at hSUCNR1
Assay type: cell-based
Set-up: expressed in transfected cells; host or cells: Flp-In T-REx 293
Study Conditions: inhibition of […] succinate response; mean ± SEM
Observable: cAMP hSUCNR1 pIC50

O=C(O)Cc1ccccc1NC(=O)c1cccc(-c2ccc(Cl)cc2)c1	6.31 ± 0.18
CC(C)(C)OC(=O)NCCN1CCN(Cc2ccc(-c3cccc(C(=O)Nc4ccccc4CC(=O)O)c3)cc2)CC1	6.82 ± 0.02
CN1CCN(Cc2ccc(-c3cccc(C(=O)Nc4ccccc4CC(=O)O)c3)cc2)CC1	7.07 ± 0.21

Problem: Form entry - test system: hSUCNR1 (Homo sapiens); read-out: cAMP hSUCNR1 pIC50; compound: Cc1ccc(C(=O)Nc2ccccc2CC(=O)O)cc1-c1ccc(Cl)cc1
Result: 6.78 ± 0.01

----------
Target Or System: UniProt Q99MT6
Sequence (Q99MT6 whole entry): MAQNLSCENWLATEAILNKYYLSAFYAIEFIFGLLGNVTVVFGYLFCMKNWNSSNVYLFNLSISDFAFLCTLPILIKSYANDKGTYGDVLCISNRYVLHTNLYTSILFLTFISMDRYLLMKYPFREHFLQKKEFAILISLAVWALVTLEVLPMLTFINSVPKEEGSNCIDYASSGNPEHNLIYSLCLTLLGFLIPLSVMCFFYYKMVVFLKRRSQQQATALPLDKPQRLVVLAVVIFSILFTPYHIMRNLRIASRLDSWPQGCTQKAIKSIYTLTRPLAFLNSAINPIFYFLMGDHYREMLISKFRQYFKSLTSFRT
Test Summary: BRET competition binding using 22 as tracer, mSUCNR1
Study Conditions: 1 μM 22, Kd = […]; highest unlabeled ligand 30 μΜ
Marks after values point to notes of the source that are not given here.
Observable: Competion binding using 22 mSUCNR1 pKi

Example entries begin here.
O=C(O)CCC(=O)O [Succinate]	3.3 ± 0.1
Cc1cc(CN2CCN(C)CC2)ccc1-c1cccc(C(=O)Nc2ccccc2CC(=O)O)c1 [Compound 44]	<4.5 ^d
O=C(O)CCc1cccc(Oc2ccc(Oc3cccc4cnccc34)cc2C(F)(F)F)c1 [Compound 48]	<4.5 ^d
CN1CCN(Cc2ccc(-c3cccc(C(=O)Nc4ccccc4CC(=O)O)c3)cc2)CC1 [Compound 1]	5.1 ± 0.0
O=C(O)Cc1ccccc1NC(=O)c1cccc(-c2ccc(Cl)cc2)c1 [Compound 32]	<4.5 ^d

Problem: Find the recorded Competion binding using 22 mSUCNR1 pKi belonging to NCCCCCCOc1ccc(-c2ccc(C(=O)N[C@@H](CC(=O)O)C(=O)O)o2)cc1 [Compound 9d] and report it.
Result: 6.2 ± 0.1

Problem: Find the recorded Competion binding using 22 mSUCNR1 pKi belonging to CCOc1ccc(-c2ccc(C(=O)N[C@@H](CC(=O)O)C(=O)O)o2)cc1 [Compound 2] and report it.
Result: 6.2 ± 0.1

Problem: Find the recorded Competion binding using 22 mSUCNR1 pKi belonging to O=C(O)C[C@H](NC(=O)c1cccc(-c2ccc(OC(F)(F)F)cc2)n1)C(=O)O [Compound 3] and report it.
Result: 5.8 ± 0.1

Problem: Find the recorded Competion binding using 22 mSUCNR1 pKi belonging to Cc1cc(Cl)ccc1-c1cccc(C(=O)Nc2ccccc2CC(=O)O)c1 [Compound 35] and report it.
Result: <4.5 ^d
